assay_remarks: Human liver microsomal intrinsic clearance
Type: in vitro ADME
conditions_used: human; well-stirred organ CL model, binding terms excluded
observable: Predicted hepatic clearance hCLHEP (mL/min/kg)

Q) I have this molecule here, Cn1ncc2cc(CN3CCC(OCc4cccc(C(F)(F)F)c4)CC3)ccc21 [Compound 13c] , and I need its recorded Predicted hepatic clearance hCLHEP.
A) 15.3

Q) What value of Predicted hepatic clearance hCLHEP has been reported for the following molecule? Fc1cc(COC2CCN(Cc3ccc4[nH]cnc4c3)CC2)ccc1Cl [Compound 10b]
A) 14.2

Q) Suppose we examine the molecule Cc1ccc(CO[C@H]2CCCN(Cc3ccc(C#N)cc3)C2)cc1 [Compound 19f] ; what Predicted hepatic clearance hCLHEP value has been reported?
A) 19.6

Q) Name the recorded Predicted hepatic clearance hCLHEP for Cc1ccc(CO[C@H]2CCCN(Cc3cccc(F)c3)C2)cc1 [Compound 19g] .
A) 19.8

Q) Value lookup for Predicted hepatic clearance hCLHEP; key = Fc1ccc(CN2CCCC23CCN(Cc2cn4ccccc4n2)C3)cc1F (stereo not drawn) [Compound 25a]
A) 18.4

Q) Which Predicted hepatic clearance hCLHEP is reported for this molecule? COc1ccc(CN2CCC[C@H](OCc3ccc(F)c(C)c3)C2)cc1F [Compound 19a]
A) 19.7

Q) Quick one: Predicted hepatic clearance hCLHEP of Cc1cc(NC(=O)CN2CCC3(CCCN(Cc4ccc(F)c(F)c4)C3)C2)ccc1F (stereo not drawn) [Compound 24f] ?
A) 19.5

Q) I'd like to know its Predicted hepatic clearance hCLHEP. The molecule in question is Cc1nc(CN2CCC(OCc3ccc(Cl)c(F)c3)CC2)c2ccccn12 [Compound 16b]
A) 17.4

###

assay_remarks: Mouse liver microsomal intrinsic clearance
Format: in vitro ADME
conditions_used: liver microsomes
observable: CLint scaled (mL/min/kg)

// known answers, use as guide
Q) Could you share which CLint scaled value was measured for Cc1cc(NC(=O)CN2CCC3(CCCN(Cc4ccc(F)c(F)c4)C3)C2)ccc1F (stereo not shown) [Compound 24f] ?
A) 855

Q) // lookup CLint scaled for FC(F)(F)c1cccc(COC2CCN(Cc3cn4ccccc4n3)CC2)c1 [Compound 17c]
A) 150

Q) Fill in the blank: the reported CLint scaled of Fc1ccc(OC[C@@H]2CN(Cc3cn4ccccc4n3)CCO2)cc1F [Compound 17k] is ____.
A) 321

Q) Need CLint scaled, item Fc1ccc(CN2CCCC23CCN(Cc2cn4ccccc4n2)C3)cc1F (stereo not shown) [Compound 25a]
A) 696

Q) // CLint scaled lookup, key: Cc1ccccc1CO[C@H]1CCCN(Cc2ccc3c(cnn3C)c2)C1 [Compound 13g]
A) 545

Q) Would you kindly share the measured CLint scaled for Fc1cc(COC2CCN(Cc3ccc4[nH]ncc4c3)CC2)ccc1Cl [Compound 12b] ?
A) 72

(P) Cc1ccc(CO[C@H]2CCCN(Cc3ccc(C#N)cc3)C2)cc1 [Compound 19f]
(Q) Cc1nc(CN2CCC(OCc3ccc(Cl)c(F)c3)CC2)c2ccccn12 [Compound 16b]
Q) # returns the entry with the larger CLint scaled; inputs P and Q // caller expects the label of the chosen entry
A) P
(P: 485 mL/min/kg, Q: 199 mL/min/kg)

###

assay_remarks: Mouse brain homogenate binding
Assay type: in vitro ADME
We begin with a simple list: items and their reported fraction unbound.
When you answer, write just the number.

Q) Can you look up the measured fraction unbound of Fc1ccc(COC2CCN(Cc3ccc4[nH]cnc4c3)CC2)cc1F [Compound 10a] for me?
A) 0.205

--- query ---
Q) Tell me the measured fraction unbound of Fc1cc(COC2CCN(Cc3ccc4[nH]cnc4c3)CC2)ccc1Cl [Compound 10b] , please.
A) 0.093
